target: MAP kinase-activated protein kinase 2 (Homo sapiens); experiment: Inhibition of MK2
Sequence (P49137 whole entry): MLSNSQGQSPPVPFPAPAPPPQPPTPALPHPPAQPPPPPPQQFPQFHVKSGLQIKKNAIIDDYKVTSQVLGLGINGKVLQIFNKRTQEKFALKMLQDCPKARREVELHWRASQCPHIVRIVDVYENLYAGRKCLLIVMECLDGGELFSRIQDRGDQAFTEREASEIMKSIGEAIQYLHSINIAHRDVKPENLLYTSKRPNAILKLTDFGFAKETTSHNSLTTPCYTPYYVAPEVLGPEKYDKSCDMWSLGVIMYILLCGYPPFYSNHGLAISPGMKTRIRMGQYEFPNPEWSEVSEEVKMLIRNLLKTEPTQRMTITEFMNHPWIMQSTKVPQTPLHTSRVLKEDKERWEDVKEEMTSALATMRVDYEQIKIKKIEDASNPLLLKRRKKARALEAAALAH
TEST READOUT: IC50 (µM)

(I) CC1=CC[C@H]2[C@@](C)(CC[C@H]3C(C)(C)CCC[C@]23C)[C@@H]1Cc1cc(C(=O)O)ccc1O
(II) CC1=C(CC/C(C)=C/Cc2cc(C(=O)O)ccc2O)[C@@]2(C)CCCC(C)(C)[C@@H]2CC1
QUERY: Of I and II , whose reported IC50 is the larger number? Identify your selection by its label.
RESULT: I
